TARGET: Mtb PDH (Lpd+DlaT+AceE) (Mycobacterium tuberculosis (strain ATCC 25618 / H37Rv))
ASSAY TEXT: PDH Inhibition Activity
Assay type: biochemical
CONDITIONS USED: concentration required for 50% inhibition of PDH activity; fluorescence ex 360 nm / em 460 nm; read-out: PDH IC50
pIC50: −log10 of the molar value.
VALUE KIND: pIC50

Below are worked cases with known answers.
Query block: Any idea what pIC50 was measured for `COCCCn1c(N)c(C(=O)NCCC(C)C)c2nc3ccccc3nc21` ?
Result block: < 5.30

Query block: Next record, please: `CCCCn1c(NC(=O)c2cccs2)c(C#N)c2nc3ccccc3nc21`
Result block: < 5.30

Continue with the molecule presented below.
Query block: Any idea what pIC50 was measured for `CCCc1nc2c(=O)n(C)c(=O)nc-2n(C)n1` ?
Result block: > 7.40

###

Attribute: IC50
TARGET: lipoamide dehydrogenase (Lpd) (Mycobacterium tuberculosis (strain ATCC 25618 / H37Rv), UniProt P9WHH9)
ASSAY TEXT: Lipoamide Dehydrogenase (Lpd) Inhibition Assay
Assay type: biochemical
CONDITIONS USED: concentration required for 50% inhibition of LPD activity; DTNB detection, OD405 nm

Below are worked cases with known answers.
Query block: Any idea what IC50 was measured for CCn1nc(-c2cccs2)nc2c(=O)n(C)c(=O)nc1-2 [Compound 610] ?
Result block: < 0.04 µM

Query block: Next record, please: CCCc1nc2c(=O)n(C)c(=O)nc-2n(C)n1 [Compound 617]
Result block: < 0.04 µM

Query block: Next record, please: CCn1nc(-c2ccccc2C)nc2c(=O)n(C)c(=O)nc1-2 [Compound 613]
Result block: < 0.04 µM

Query block: Next record, please: CCn1nc(-c2ccc([N+](=O)[O-])cc2)nc2c(=O)n(C)c(=O)nc1-2 [Compound 620]
Result block: < 0.04 µM

Query block: Next record, please: Cn1c(N)c(C(=O)NCc2ccccc2)c2nc3ccccc3nc21 [Compound 1013]
Result block: > 4 µM

---
Query block: Any idea what IC50 was measured for Cn1nc(-c2ccc(C(F)(F)F)cc2)nc2c(=O)n(C)c(=O)nc1-2 [Compound 619] ?
Result block: < 0.04 µM

Query block: Next record, please: CCn1nc(-c2ccc(C(=O)OC)cc2)nc2c(=O)n(C)c(=O)nc1-2 [Compound 621]
Result block: < 0.04 µM

Query block: Next record, please: CC(C)n1cnc(S(=O)(=O)N2CCC(C(=O)Nc3ccc(Cl)cc3)CC2)c1 [Compound 522]
Result block: 2.94 µM

Query block: Next record, please: CCn1cnc(S(=O)(=O)N2CCC(C(=O)Nc3nc4ccc(OC)cc4s3)CC2)c1 [Compound 563]
Result block: 3.02 µM

Query block: Next record, please: CCn1cnc(S(=O)(=O)N2CCC(C(=O)Nc3ccc(OC)c(Cl)c3)CC2)c1 [Compound 548]
Result block: 2.35 µM

###

TARGET: lipoamide dehydrogenase (Lpd) (Mycobacterium tuberculosis (strain ATCC 25618 / H37Rv))
ASSAY TEXT: Lipoamide Dehydrogenase (Lpd) Inhibition Assay
Format: biochemical
CONDITIONS USED: concentration required for 50% inhibition of LPD activity; DTNB detection, OD405 nm
VALUE KIND: IC50 (nM)
The figure you give is taken to be in nM; do not add the unit.

Below are worked cases with known answers.
Query block: Any idea what IC50 was measured for `O=C1C(=O)c2cc([N+](=O)[O-])ccc2-c2ccccc21` ?
Result block: 640

Query block: Next record, please: `CC(C)n1cnc(S(=O)(=O)N2CCC(C(=O)Nc3cccc(Cl)c3)CC2)c1`
Result block: 3830

Query block: Next record, please: `CCn1cnc(S(=O)(=O)N2CCC(C(=O)Nc3ccc4c(c3)OCCO4)CC2)c1`
Result block: 2690

Query block: Next record, please: `CC(C)n1cnc(S(=O)(=O)N2CCC(C(=O)Nc3ccccc3F)CC2)c1`
Result block: 2670

---
Query block: Any idea what IC50 was measured for `CCn1cnc(S(=O)(=O)N2CCC(C(=O)Nc3ccc(OC)cc3)CC2)c1` ?
Result block: 3310

Source listed as patent US9073941B2.
